assayNotes: Part 1: plasma PK of rilzabrutinib after single oral 400 mg tablet
Assay type: in vivo, human
measurementParameters: male, human, plasma, po, 400 mg
resultType: AUC(0-inf) (ng·h/mL)

>>> recordednumber("CC(C)(/C=C(\\C#N)C(=O)N1CCC[C@@H](n2nc(-c3ccc(Oc4ccccc4)cc3F)c3c(N)ncnc32)C1)N1CCN(C2COC2)CC1 [rilzabrutinib]")
336

----------
assayNotes: pH‐dependent solubility
Type: physicochemical
measurementParameters: aqueous buffer
resultType: solubility

>>> result("CC(C)(/C=C(\\C#N)C(=O)N1CCC[C@@H](n2nc(-c3ccc(Oc4ccccc4)cc3F)c3c(N)ncnc32)C1)N1CCN(C2COC2)CC1")
"> 120 mg/mL"

----------
assayNotes: pH‐dependent solubility
Type: physicochemical
resultType: solubility (µg/mL)

>>> recordednumber("CC(C)(/C=C(\\C#N)C(=O)N1CCC[C@@H](n2nc(-c3ccc(Oc4ccccc4)cc3F)c3c(N)ncnc32)C1)N1CCN(C2COC2)CC1 [rilzabrutinib]")
40

----------
assayNotes: Part 1: absolute oral bioavailability
Type: in vivo
measurementParameters: male, human, plasma, 400 mg
resultType: bioavailability

>>> result("CC(C)(/C=C(\\C#N)C(=O)N1CCC[C@@H](n2nc(-c3ccc(Oc4ccccc4)cc3F)c3c(N)ncnc32)C1)N1CCN(C2COC2)CC1 [rilzabrutinib]")
"< 5%"

----------
assayNotes: Part 1: plasma PK of rilzabrutinib after single oral 400 mg tablet
Format: in vivo, human
measurementParameters: male, human, plasma, po, 400 mg
resultType: AUC(0-t) (ng·h/mL)

>>> recordednumber("CC(C)(/C=C(\\C#N)C(=O)N1CCC[C@@H](n2nc(-c3ccc(Oc4ccccc4)cc3F)c3c(N)ncnc32)C1)N1CCN(C2COC2)CC1 [rilzabrutinib]")
334

----------
assayNotes: Part 1: plasma PK of rilzabrutinib after single oral 400 mg tablet
Format: in vivo, human
measurementParameters: male, human, plasma, po, 400 mg
resultType: Cmax

>>> result("CC(C)(/C=C(\\C#N)C(=O)N1CCC[C@@H](n2nc(-c3ccc(Oc4ccccc4)cc3F)c3c(N)ncnc32)C1)N1CCN(C2COC2)CC1")
"0.108 µg/mL"

----------
Type: in vivo, human
measurementParameters: male, human, plasma, po, 300 mg
resultType: half-life (h)

>>> recordednumber("CC(C)(/C=C(\\C#N)C(=O)N1CCC[C@@H](n2nc(-c3ccc(Oc4ccccc4)cc3F)c3c(N)ncnc32)C1)N1CCN(C2COC2)CC1")
2.45
